pIC50: −log10 of the molar value.
A compilation of published pIC50 results with Cytochrome P450 3A4 (Homo sapiens, UniProt P08684).
Sequence (P08684 whole entry): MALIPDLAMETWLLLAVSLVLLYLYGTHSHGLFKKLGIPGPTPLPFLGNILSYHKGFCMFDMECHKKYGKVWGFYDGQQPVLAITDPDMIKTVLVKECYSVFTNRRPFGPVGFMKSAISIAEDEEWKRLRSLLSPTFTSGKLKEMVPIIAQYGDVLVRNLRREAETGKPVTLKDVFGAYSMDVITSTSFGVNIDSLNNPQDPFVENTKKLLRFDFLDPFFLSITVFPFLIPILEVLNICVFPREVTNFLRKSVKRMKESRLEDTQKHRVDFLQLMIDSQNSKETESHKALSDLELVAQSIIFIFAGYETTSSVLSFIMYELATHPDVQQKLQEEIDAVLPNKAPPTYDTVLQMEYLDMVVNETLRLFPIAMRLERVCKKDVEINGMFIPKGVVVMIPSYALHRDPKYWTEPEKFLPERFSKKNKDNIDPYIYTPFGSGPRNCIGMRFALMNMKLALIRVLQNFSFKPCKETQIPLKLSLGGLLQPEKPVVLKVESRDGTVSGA

Observe how each entry below is paired with its result.
compound | pIC50
CNCC(=O)N[C@H](c1cc(C)ccc1N1CCN(C(=O)[C@H](C)Cc2ccc(Cl)cc2F)CC1)C(C)C | 5.16
CN(C)S(=O)(=O)N(C)[C@@H]1CCCn2c1nc(C(=O)NCc1ccc(F)cc1)c(O)c2=O | < 4.00
Cc1occc1-c1nc(N)c(OC[C@@H](N)Cc2c[nH]c3ccccc23)cc1-c1cnc2[nH]nc(C)c2c1 | 6.00

Query string: Please indicate pIC50 recorded for `O=C(O)[C@H](Cc1ccc(-n2c(-c3cccnc3)nc3cccnc32)cc1)NC1=C(Br)C(=O)C12CCCCC2`
Result string: 4.21

Query string: Give pIC50 for `Nc1nc2ccc(S(=O)(=O)Cc3ccccc3)cc2s1`
Result string: < 4.60

Query string: Item `COC(=O)C1CCN(C(=O)c2ccc(CS(=O)(=O)c3ccc4nc(N)sc4c3)cc2)CC1` : provide pIC50
Result string: > 5.00

Query string: Note down pIC50 recorded for `CC(C)=CCn1c(N2CCCNCC2)c(C#N)c2c1c(=O)n(Cc1cn3ccccc3n1)c(=O)n2C`
Result string: ≥ 5.52

Query string: Item NCCCCN(C(=O)c1ccc2c(c1)CCO2)c1ccnc(NC2CCC(O)CC2)n1 (centres undefined) : provide pIC50
Result string: < 4.70

Query string: Determine its reported pIC50: `Fc1ccc(Oc2ncnc3[nH]ccc23)cc1`
Result string: < 4.70
